target.system: T1, CD134 expressed on the cell surface of HT1080_OX40 cells (human, UniProt P43489 29-277); further: test concentration or dose not given here
T1 sequence (looked up): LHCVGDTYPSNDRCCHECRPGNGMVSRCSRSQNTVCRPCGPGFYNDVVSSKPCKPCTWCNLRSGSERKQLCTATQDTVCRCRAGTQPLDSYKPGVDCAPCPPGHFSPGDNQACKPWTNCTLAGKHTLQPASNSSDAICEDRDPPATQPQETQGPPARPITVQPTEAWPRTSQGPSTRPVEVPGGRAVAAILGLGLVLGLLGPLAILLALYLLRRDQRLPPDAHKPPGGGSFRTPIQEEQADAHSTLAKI
assay.method.text: cell-based or functional assay
Output label 1 for records whose Functional assay IL-8 is lower than 0.1 abs. corr., label 0 for records at or above 0.1 abs. corr..

Below are worked cases with known answers.
{"binder": "P018.S.12.A.A06 (antibody, V domains shown, V regions on human Ig constant parts; also called AB134_55) VH: QSVEESGGRLVTPGTPLTLTCTVSGFSLSSFAMTWVRQAPGKGLEWIGIISSSGTTYYASWAKGRFTISKTSTTVDLRITSPTTEDTATYFCASHYDDYGDSDALDPWGPGTLVTVSS VL: AAVMTQTPSPVSAAVGGTVTINCQASEDIYSNLAWFQQKPGQPPKLLIYRASTLASGVPSRFSGSGSGTEFTLTISGLQSDDAATYYCLGVDRHISDRAFGGGTEVVVK", "label.class": "label 1"}
{"binder": "P018.S.12.A.H03 (antibody, V domains shown, V regions on human Ig constant parts; also called AB134_89) VH: QSLEESRGGLVQPEGSLTLTCKASGFSFSSGYYMCWVRQAPGKGLEWIGCIYSGSDSACYASWAKGRFTISKTSSTTVTLQMTSLTVADTATYFCVRDLGDYNALSYTINLWGPGTLVTVSS VL: DVVMTQTPSSVSAAVGGTVTIKCQASQSISTNLAWYQEKAGQPPKLLIYRASTVASGVPSRFKGSGSGTQFTLTISDLESADATTYFCQCIDYDDYGGTFGGGTEVVVK", "label.class": "label 1"}
{"binder": "P018.S.02.A.F01 (antibody, V domains shown, V regions on human Ig constant parts; also called AB134_1) VH: QSVEESGGRLVTPGTPLTLTCTVSGFSLSSYAMSWVRQAPGKGLEWIGIISSSGVTYYASWAKGRFTISKTSTTVDLRITGPTTEDTATYFCARDPGYSTGWDYFFRLWGQGTLVTVSS VL: AIKMTQTPASVSAAVGGTVSINCQASEDIESYLAWYQQKPGQPPKLLIYDASDLPSGVPSRFKGSGSGKQFTLTISGVQSDDAATYYCQHGAYTSSSDFFYAFGGGTEVVVK", "label.class": "label 0"}
{"binder": "P018.S.11.A.H05 (antibody, V domains shown, V regions on human Ig constant parts; also called AB134_48) VH: QQRLVESGGGLVKPGASLTLTCTASGFSFSSGYDMCWVRQAPGKGLEWVGCIDTATDTIYYASWAPGRFTISKTSSTMVTLQMTSLTAADTATYFCARSVGGVDYAIDLWGPGTLVTVSS VL: AYDMTQTPVSVEVPVGGTVTIKCQASQNIGSRLVWYQQKPGQSPKFLIYYASNLASGVSSRFKGSGSGTQFTLTISDVQSDNAATYYCQQTYSYSDVDDTFGGGTEVVVK", "label.class": "label 0"}

# next binder below
Confirm or reject: Functional assay IL-8 of P018.S.12.A.D02 (antibody, V domains shown, V regions on human Ig constant parts; also called AB134_67) VH: QSVEESGGRLVTPGTPLTLTCTVSGFSLRHYAMSWVRQAPGKGLEWIGVITTTANTYYASWAKGRFTVSKASSTTVDLKIMSPTIEDTATYFCARAMGLYDSYVDVDDTHDAFDPWGPGTLVTVSS VL: AQVLTQTASPVSAAVGGTVTINCQSSQSVYNSHVLSWYQQKPGQPPKLLIYDASNLASGVPSRFSASGSGTQFTLTISGVQSDDAATYYCLGGYDDDADNIFAFGGGTEVVVA lies strictly below 0.1 abs. corr.
label 0
